Where do the numbers come from? From paper PMC9610702.

// MIC collected for Trichophyton mentagrophytes
Test readout: MIC (µg/mL)

>>> print(df.to_string())
                                    molecule  reading
 0  CCC(=O)Oc1ccc(C2NC(=S)N(C)C(C)=C2C(=O)OC)cc1OC (centres unmarked)      200
 1  OC(Cn1cncn1)(Cn1cncn1)c1ccc(F)cc1F [Fluconazole, reference compound]      250
 2  CCOc1cccc(C2NC(=S)N(C)C(C)=C2C(=O)OC)c1OC(C)=O (centres unmarked)      810
 3  COC(=O)C1=C(C)N(C)C(=S)NC1c1ccc(OC(=O)C2CC2)c(OC)c1 (centres unmarked)      200
 4  COC(=O)C1=C(C)N(C)C(=S)NC1c1cc(OC)c(OC(C)=O)c([N+](=O)[O-])c1 (centres unmarked)      400
 5  COC(=O)C1=C(C)N(C)C(=S)NC1c1ccc(OC(=O)c2ccc(C)cc2)c(OC)c1 (centres unmarked)      200
 6  COC(=O)C1=C(C)N(C)C(=S)NC1c1cc(I)c(O)c(OC)c1 (centres unmarked)      400
 7  COC(=O)C1=C(C)N(C)C(=S)NC1c1ccc(OC(=O)c2ccccc2)c(OC)c1 (centres unmarked)      400
 8  COC(=O)C1=C(C)N(C)C(=S)NC1c1cc(Br)c(O)c(OC)c1 (centres unmarked)      400
 9  COC(=O)C1=C(C)N(C)C(=S)NC1c1cc(OC)c(O)c([N+](=O)[O-])c1 (centres unmarked)      400
10  COC(=O)C1=C(C)N(C)C(=S)NC1c1ccc(OC(C)=O)c(OC)c1 (centres unmarked)      400

* * *

Measured on: α-glucosidase
Test name: α-glucosidase inhibitory activity
Condition summary: average ± SD of two experiments
pIC50: −log10 of the molar value.
pIC50: recorded values
Test readout: pIC50

In [3]: df
Out[3]:
                                   compound    measured_on  reading
0  COC(=O)C1=C(C)N(C)C(=S)NC1c1cc(Br)c(O)c(OC)c1 (centres unmarked) [4a]  α-glucosidase     3.50
1  CCOc1cccc(C2NC(=S)N(C)C(C)=C2C(=O)OC)c1OC(C)=O (centres unmarked) [4h]  α-glucosidase     3.03
2  CCC(=O)Oc1ccc(C2NC(=S)N(C)C(C)=C2C(=O)OC)cc1OC (centres unmarked) [4e]  α-glucosidase     3.17
3  COC(=O)C1=C(C)N(C)C(=S)NC1c1cc(I)c(O)c(OC)c1 (centres unmarked) [4b]  α-glucosidase     3.53
4  COC(=O)C1=C(C)N(C)C(=S)NC1c1ccc(OC(=O)c2ccc(C)cc2)c(OC)c1 (centres unmarked) [4k]  α-glucosidase     2.97

* * *

Measured on: α-glucosidase
Test name: α-glucosidase inhibitory activity
Condition summary: average ± SD of two experiments
pIC50: −log10 of the molar value.
Item-by-item account of pIC50
Test readout: pIC50

                                   compound  test_readout  reading
0  COC(=O)C1=C(C)N(C)C(=S)NC1c1cc(OC)c(OC(C)=O)c([N+](=O)[O-])c1 (stereo not drawn)         pIC50     2.95
1  COC(=O)C1=C(C)N(C)C(=S)NC1c1ccc(OC(=O)C2CC2)c(OC)c1 (stereo not drawn)         pIC50     3.11
2  COC(=O)C1=C(C)N(C)C(=S)NC1c1ccc(OC(C)=O)c(OC)c1 (stereo not drawn)         pIC50     3.72

* * *

Tested on: MDA-MB-231 cells
Test name: cytotoxic activity
Assay type: cell-based
Condition summary: three independent experiments in triplicate, read-out: IC50 Average ± SD
Test readout: IC50 (µM)

>>> df
                                   molecule       measured_on  unit_of_measurement  reading
0  N.N.[Cl][Pt][Cl] [cisPt, reference compound]  MDA-MB-231 cells                   µM     14.7

* * *

Tested on: K562 cells
Test name: cytotoxic activity
Format: cell-based
Condition summary: Homo sapiens; K562; three independent experiments in triplicate; read-out: IC50 Average ± SD
Test readout: IC50 (µM)

>>> print(df.to_string())
                                   molecule  test_readout  reading
0  COC(=O)C1=C(C)N(C)C(=S)NC1c1ccc(OC(=O)C2CC2)c(OC)c1 (stereo not shown)          IC50      123
1  COC(=O)C1=C(C)N(C)C(=S)NC1c1cc(I)c(O)c(OC)c1 (stereo not shown)          IC50     76.8
2  COC(=O)C1=C(C)N(C)C(=S)NC1c1cc(Br)c(O)c(OC)c1 (stereo not shown)          IC50       79
3  COC(=O)C1=C(C)N(C)C(=S)NC1c1ccc(OC(C)=O)c(OC)c1 (stereo not shown)          IC50      153
4  CCOc1cccc(C2NC(=S)N(C)C(C)=C2C(=O)OC)c1OC(C)=O (stereo not shown)          IC50     79.9
5  COC(=O)C1=C(C)N(C)C(=S)NC1c1cc(OC)c(OC(C)=O)c([N+](=O)[O-])c1 (stereo not shown)          IC50      165
6  CCC(=O)Oc1ccc(C2NC(=S)N(C)C(C)=C2C(=O)OC)cc1OC (stereo not shown)          IC50      149
7  COC(=O)C1=C(C)N(C)C(=S)NC1c1ccc(OC(=O)c2ccccc2)c(OC)c1 (stereo not shown)          IC50       68
8  COC(=O)C1=C(C)N(C)C(=S)NC1c1ccc(OC(=O)c2ccc(C)cc2)c(OC)c1 (stereo not shown)          IC50     39.1
9  COC(=O)C1=C(C)N(C)C(=S)NC1c1cc(OC)c(O)c([N+](=O)[O-])c1 (stereo not shown)          IC50      180

* * *

Reported MIC values, Staphylococcus aureus.
Test readout: MIC (µg/mL)

Molecule	Test readout	Reading
CCOc1cccc(C2NC(=S)N(C)C(C)=C2C(=O)OC)c1OC(C)=O (centres unmarked) [4h]	MIC	3250
CCC(=O)Oc1ccc(C2NC(=S)N(C)C(C)=C2C(=O)OC)cc1OC (centres unmarked) [4e]	MIC	3250
COC(=O)C1=C(C)N(C)C(=S)NC1c1ccc(OC(=O)c2ccccc2)c(OC)c1 (centres unmarked) [4j]	MIC	3250
COC(=O)C1=C(C)N(C)C(=S)NC1c1cc(Br)c(O)c(OC)c1 (centres unmarked) [4a]	MIC	1620
COC(=O)C1=C(C)N(C)C(=S)NC1c1ccc(OC(=O)c2ccc(C)cc2)c(OC)c1 (centres unmarked) [4k]	MIC	3250
COC(=O)C1=C(C)N(C)C(=S)NC1c1ccc(OC(=O)C2CC2)c(OC)c1 (centres unmarked) [4f]	MIC	3250
COC(=O)C1=C(C)N(C)C(=S)NC1c1ccc(OC(C)=O)c(OC)c1 (centres unmarked) [4g]	MIC	3250
[H]/N=C(/N)N[C@H]1[C@H](O)[C@@H](O)[C@H](O[C@@H]2O[C@@H](C)[C@](O)(C=O)[C@H]2O[C@@H]2O[C@@H](CO)[C@H](O)[C@@H](O)[C@@H]2NC)[C@@H](N/C(N)=N\[H])[C@@H]1O [Streptomycin, reference compound]	MIC	31
COC(=O)C1=C(C)N(C)C(=S)NC1c1cc(OC)c(OC(C)=O)c([N+](=O)[O-])c1 (centres unmarked) [4d]	MIC	810
COC(=O)C1=C(C)N(C)C(=S)NC1c1cc(I)c(O)c(OC)c1 (centres unmarked) [4b]	MIC	1620
COC(=O)C1=C(C)N(C)C(=S)NC1c1cc(OC)c(O)c([N+](=O)[O-])c1 (centres unmarked) [4c]	MIC	1620

* * *

System: HeLa cells
Test name: cytotoxic activity
Assay type: cell-based
Condition summary: HeLa; three independent experiments in triplicate; read-out: IC50 Average ± SD
Test readout: IC50 (µM)

In [3]: df
Out[3]:
                                   molecule  measured_on  test_readout  unit_of_measurement  reading
0  N.N.[Cl][Pt][Cl] [cisPt, reference compound]   HeLa cells          IC50                   µM     4.91
